measured.on: Nanoluciferase-BRD9 fusion protein (Homo sapiens (Human))
Sequence (Q9H8M2 whole entry, the tested form may be a part): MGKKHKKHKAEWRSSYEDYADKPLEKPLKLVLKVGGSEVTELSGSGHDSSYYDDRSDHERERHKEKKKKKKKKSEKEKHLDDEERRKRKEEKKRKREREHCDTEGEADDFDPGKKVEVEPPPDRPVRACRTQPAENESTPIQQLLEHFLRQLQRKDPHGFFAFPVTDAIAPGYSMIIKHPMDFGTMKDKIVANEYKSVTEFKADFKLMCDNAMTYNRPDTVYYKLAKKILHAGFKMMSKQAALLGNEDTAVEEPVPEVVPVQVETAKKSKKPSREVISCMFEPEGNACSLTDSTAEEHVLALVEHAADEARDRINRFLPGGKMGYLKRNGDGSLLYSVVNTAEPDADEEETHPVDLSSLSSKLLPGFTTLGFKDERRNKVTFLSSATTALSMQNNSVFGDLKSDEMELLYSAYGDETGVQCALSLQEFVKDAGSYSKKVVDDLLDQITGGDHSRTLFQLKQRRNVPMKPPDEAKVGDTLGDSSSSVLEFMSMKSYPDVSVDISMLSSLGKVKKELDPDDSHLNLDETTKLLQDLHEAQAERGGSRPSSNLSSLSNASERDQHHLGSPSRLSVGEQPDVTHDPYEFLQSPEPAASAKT
procedure.details: SYO1 BRD9 NanoLuc degradation assay
Assay type: cell-based
condition.summary: Table 5B; SYO-1 cells expressing 3×FLAG-NLuc-BRD9, 6 hours; read-out: SYO1 BRD9-NanoLuc degradation IC50
For each record, write down the corresponding DC50.

Reported DC50 ( COc1cc(-c2cn(C)c(=O)c3cnccc23)cc(OC)c1CN1CCC(c2ncc(COc3ccc4c(c3)C(=O)N(C3CCC(=O)NC3=O)C4=O)o2)CC1 (centres unmarked) ) = < 10 nM

Query COc1cc(-c2cc(C)c(=O)n(C)c2C)c(OC)cc1CN1CC(CN2CCC3(CC2)CN(c2ccc4c(c2)C(=O)N(C2CCC(=O)NC2=O)C4=O)C3)C1 (centres unmarked) yields DC50 of < 10 nM

# DC50 of COc1cc(-c2cc(C)c(=O)n(C)c2)cc(OC)c1CN1CCC2CN(c3ccc4c(c3)C(=O)N(C3CCC(=O)NC3=O)C4=O)C21 (centres unmarked) = < 10 nM

Lab book: DC50 of COc1cc(-c2cn(C)c(=O)c3cnccc23)cc(OC)c1CN1CC(CC(=O)N2CCC3(CC(Oc4ccc5c(c4)C(=O)N([C@@H]4CCC(=O)NC4=O)C5=O)C3)C2)C1 (some centres unmarked) noted as 10 to 100 nM

// field: DC50; key: COc1cc(-c2cn(C)c(=O)c3cnccc23)cc(OC)c1CN1CCC2(C1)CN(C(=O)CC#Cc1ccc3c(c1)C(=O)N(C1CCC(=O)NC1=O)C3=O)C2 (centres unmarked) ; value = 10 to 100 nM
